# System: kynurenine production in HeLa cells
# Experimental Details: Inhibition of kynurenine production in HeLa cells
# Format: cell-based, human
# Test Conditions: Homo sapiens, HeLa, 48 h, HeLa cells, human IFN-γ 50 ng/mL, kynurenine read at 480 nm, read-out: IC50
In plain terms, low IC50, meaning strictly below 1 nM, gives condition met, and everything else gives condition not met.

Example entries and their recorded answers appear below.
INSERT INTO results (compound, label_value) VALUES
  ('CC(C)CN(c1ccc(C2(C(=O)O)CCC2)cc1Nc1cncnc1)C1CCOCC1', 'condition not met'),
  ('CCOc1ncc(Nc2cc(C3(C(=O)O)CCC3)ccc2N(CC(C)C)C2CCCCC2)cn1', 'condition met'),
  ('CC(C)N(CC1CC1)c1ccc(C2(C(=O)O)CCC2)cc1Nc1ccc(Cl)cc1', 'condition met'),
  ('CC(C)CN(CC(C)C)c1ccc(C(CC(=O)O)C(F)(F)F)cc1NC(=O)Nc1ccc(F)cc1F (centres unmarked) [Control 1, reference compound]', 'condition met'),
  ('CCN(c1ncc(C2(C(=O)O)CCC2)cc1Nc1ccc(Cl)cc1)C1CCOCC1', 'condition met');

Prompt: Is IC50 of `CC(C)CN(CC(C)C)c1ncc(C2(C(=O)O)CCC2)cc1NC(=O)Nc1ccc(F)cc1F` strictly below 1 nM?
Response: condition not met

Prompt: Is IC50 of `CC(C)CN(CC(C)C)c1ncc(C2(C(=O)O)CCC2)cc1Nc1ccc(C#N)cn1` strictly below 1 nM?
Response: condition met

Prompt: Is IC50 of `CC(C)N(CC1CC1)c1ccc(C2(C(=O)O)CCC2)cc1Nc1ccc(C#N)cc1` strictly below 1 nM?
Response: condition met

====

# Test system: pooled human hepatocytes
# Experimental Details: Human hepatocyte clearance study
# Type: in vitro ADME
# Test Conditions: pooled human hepatocytes, 120 min
As shown below, each of these molecules has a reported Human Hepatocyte Remaining Percentage @ 120 min value.
Please state the value as a number alone, without comment.

Sample records with Human Hepatocyte Remaining Percentage @ 120 min:
INSERT INTO assay_data (molecule, result_number) VALUES
  ('CC(C)CN(c1ncc(C2(C(=O)O)CCC2)cc1Nc1ccc(C#N)cc1)C1CCOCC1', 92),
  ('CC(C)CN(CC(C)C)c1ccc(C(CC(=O)O)C(F)(F)F)cc1NC(=O)Nc1ccc(F)cc1F (stereo not shown) [Control 1, reference compound]', 76),
  ('CC(C)N(CC1CC1)c1ncc(C2(C(=O)O)CCC2)cc1Nc1ccc(Cl)cn1', 63);

// Human Hepatocyte Remaining Percentage @ 120 min (pooled human hepatocytes) for `CC(C)CN(CC(C)C)c1ccc(C2(C(=O)O)CCCC2)cc1NC(=O)Nc1ccc(F)cc1F` = 79

====

# Experimental Details: Human hepatocyte clearance study
# Format: in vitro ADME
# Test Conditions: pooled cryopreserved human hepatocytes (suspension); pooled human hepatocytes; read-out: Human In vitro Clint (μL/min/10^6 cells)
Property Label: hepatocyte CLint at 1 µM
Answer shape: numeric part, then the unit.

INSERT INTO results (molecular_string, property_label, result) VALUES
  ('CCN(c1ccc(C2(C(=O)O)CCC2)cc1Nc1ccc(Cl)cn1)C1CCOCC1', 'hepatocyte CLint at 1 µM', '3.6 µL/min/1e6 cells'),
  ('CCOc1ncc(Nc2cc(C3(C(=O)O)CCC3)ccc2N(CC(C)C)C2CCOCC2)cn1', 'hepatocyte CLint at 1 µM', '2.6 µL/min/1e6 cells'),
  ('CCN(c1ncc(C2(C(=O)O)CCC2)cc1Nc1ccc(Cl)cn1)C1CCOCC1', 'hepatocyte CLint at 1 µM', '1.4 µL/min/1e6 cells'),
  ('CC(C)CN(CC(C)C)c1ccc(C2(C(=O)O)CCCC2)cc1NC(=O)Nc1ccc(F)cc1F', 'hepatocyte CLint at 1 µM', '3 µL/min/1e6 cells'),
  ('CC(C)CN(c1ccc(C2(C(=O)O)CCC2)cc1Nc1ccc(C#N)cn1)C1CCOCC1', 'hepatocyte CLint at 1 µM', '5.2 µL/min/1e6 cells');

hepatocyte CLint at 1 µM reported for this compound `CC(C)CN(CC(C)C)c1ccc(C2(C(=O)O)CCC2)cc1Nc1ccc(Cl)cn1` : 5.1 µL/min/1e6 cells

hepatocyte CLint at 1 µM reported for this compound `CC(C)N(CC1CC1)c1ncc(C2(C(=O)O)CCC2)cc1Nc1ccc(C#N)cn1` : 6.4 µL/min/1e6 cells

hepatocyte CLint at 1 µM reported for this compound `CCN(c1ncc(C2(C(=O)O)CCC2)cc1Nc1ccc(Cl)cc1)C1CCOCC1` : 1.4 µL/min/1e6 cells

====

As shown below, each of these compounds has a reported half-life at 1 µM value.
# Experimental Details: Human hepatocyte clearance study
# Assay type: in vitro ADME
# Test Conditions: pooled cryopreserved human hepatocytes (suspension); pooled human hepatocytes; read-out: Human In vitro T1/2
Please reply with the bare figure in min and do not write the unit itself.

Sample records with half-life at 1 µM:
INSERT INTO results (compound, unit_tag, result_number) VALUES
  ('CC(C)N(CC1CC1)c1ncc(C2(C(=O)O)CCC2)cc1Nc1ccc(C#N)cn1 [Compound 110]', 'min', 216),
  ('CC(C)CN(c1ncc(C2(C(=O)O)CCC2)cc1Nc1ccc(C#N)cc1)C1CCOCC1 [Compound 91]', 'min', 1060),
  ('CC(C)CN(CC(C)C)c1ncc(C2(C(=O)O)CCC2)cc1Nc1ccc(Cl)cc1 [Compound 84]', 'min', 623),
  ('CC(C)CN(c1ccc(C2(C(=O)O)CCC2)cc1Nc1ccc(C#N)cn1)C1CCOCC1 [Compound 86]', 'min', 268),
  ('CC(C)CN(c1ccc(C2(C(=O)O)CCC2)cc1NC(=O)Nc1ccc(F)cc1F)C1CCOCC1 [Compound 25]', 'min', 902);

half-life at 1 µM reported for this compound CCN(c1ncc(C2(C(=O)O)CCC2)cc1Nc1ccc(C#N)cc1)C1CCOCC1 [Compound 125] : 1590

half-life at 1 µM reported for this compound CC(C)CN(CC(C)C)c1ccc(C2(C(=O)O)CCC2)cc1NC(=O)Nc1ccc(F)cc1F [Compound 16] : 1880

half-life at 1 µM reported for this compound CCN(c1ncc(C2(C(=O)O)CCC2)cc1Nc1ccc(Cl)cc1)C1CCOCC1 [Compound 120] : 1020

====

# Test system: kynurenine production in HeLa cells
# Experimental Details: Inhibition of kynurenine production in HeLa cells
# Format: cell-based, human
# Test Conditions: Homo sapiens, HeLa, 48 h, HeLa cells, human IFN-γ 50 ng/mL, kynurenine read at 480 nm, read-out: IC50
Property Label: pIC50
In plain terms, pIC50 is the concentration in mol/L turned into minus its base-10 logarithm.

INSERT INTO measurements (molecular_string, result_number) VALUES
  ('CC(C)CN(CC(C)C)c1ccc(SCC(=O)O)cc1NC(=O)Nc1ccc(F)cc1F', 8.55),
  ('CCN(c1ccc(C2(C(=O)O)CCC2)cc1Nc1ccc(Cl)cn1)C1CCOCC1', 10.00),
  ('CCOc1ccc(Nc2cc(C3(C(=O)O)CCC3)ccc2N(CC(C)C)C2CCCCC2)cc1', 9.00);

pIC50 reported for this compound `Cc1cc(NC(=O)Nc2cc(C3(C(=O)O)CCCC3)ccc2N(CC(C)C)C2CCOCC2)on1` : 8.85

pIC50 reported for this compound `CC(C)CN(CC(C)C)c1ccc(C2(c3nnn[nH]3)CCCC2)cc1NC(=O)Nc1ccc(F)cc1F` : 9.05

====

# Experimental Details: Human hepatocyte clearance study
# Assay type: in vitro ADME
# Test Conditions: pooled cryopreserved human hepatocytes (suspension); pooled human hepatocytes; read-out: Human In vitro T1/2
As shown below, each of these molecules has a reported half-life at 1 µM value.
Please reply with the bare figure in h and do not write the unit itself.

Sample records with half-life at 1 µM:
INSERT INTO assay_data (molecular_string, property_label, result_number) VALUES
  ('CCOc1ncc(Nc2cc(C3(C(=O)O)CCC3)ccc2N(CC(C)C)C2CCOCC2)cn1', 'half-life at 1 µM', 8.9),
  ('CC(C)CN(CC(C)C)c1ccc(C2(C(=O)O)CCC2)cc1Nc1ccc(Cl)cn1', 'half-life at 1 µM', 4.58),
  ('CC(C)CN(CC(C)C)c1ncc(C2(C(=O)O)CCC2)cc1Nc1ccc(Cl)cn1', 'half-life at 1 µM', 4.2);

half-life at 1 µM reported for this molecule `CCOc1ncc(Nc2cc(C3(C(=O)O)CCC3)ccc2N(CC)C2CCOCC2)cn1` : 35.4

====

As shown below, each of these molecules has a reported CLint scaled at 1 µM value.
# Experimental Details: Human hepatocyte clearance study
# Format: in vitro ADME
# Test Conditions: human, pooled cryopreserved human hepatocytes (suspension); scaled up from in vitro t1/2, scaling factor 2544.3; read-out: Human Scale-up Clint
Please reply with the bare figure in mL/min/kg and do not write the unit itself.

INSERT INTO assay_data (molecule, result_number) VALUES
  ('CCN(c1ncc(C2(C(=O)O)CCC2)cc1Nc1ccc(Cl)cc1)C1CCOCC1', 3.5);

CLint scaled at 1 µM reported for this molecule `CC(C)CN(c1ccc(C2(C(=O)O)CCC2)cc1Nc1ccc(C#N)cn1)C1CCOCC1` : 13

CLint scaled at 1 µM reported for this molecule `CC(C)CN(CC(C)C)c1ccc(C2(C(=O)O)CCCC2)cc1Nc1ccccc1` : 2

CLint scaled at 1 µM reported for this molecule `CCN(c1ncc(C2(C(=O)O)CCC2)cc1Nc1ccc(C#N)cc1)C1CCOCC1` : 2.2

CLint scaled at 1 µM reported for this molecule CC(C)CN(CC(C)C)c1ccc(C(CC(=O)O)C(F)(F)F)cc1NC(=O)Nc1ccc(F)cc1F (centres unmarked) [Control 1, reference compound] : 11

CLint scaled at 1 µM reported for this molecule `CC(C)CN(CC(C)C)c1ccc(C2(C(=O)O)CCC2)cc1NC(=O)Nc1ccc(F)cc1F` : 1.8

CLint scaled at 1 µM reported for this molecule `CC(C)CN(CC(C)C)c1ncc(C2(C(=O)O)CCC2)cc1Nc1ccc(Cl)cn1` : 14

CLint scaled at 1 µM reported for this molecule `CCN(c1ccc(C2(C(=O)O)CCC2)cc1Nc1ccc(C#N)cn1)C1CCOCC1` : 8.5

The reported measurements were obtained from patent US11969425B2.
